Recorded values, source PubChem BioAssay AID1963970.

system: 931267-113-T-J1-PDC multicell spheroid viability; test: Anticancer human tumor 931267-113-T-J1-PDC patient-derived colon adenocarcinoma cell line growth inhibition [PI3K]; settings: second compound 0.0316 µM; first compound 0.316 µM; stronger effect = lower value

compound | viability, T/C, %
C=CC(=O)N1CCN(c2nc(=O)n(-c3c(C)ccnc3C(C)C)c3nc(-c4c(O)cccc4F)c(F)cc23)C(C)C1 (stereo not given) + Cc1nc(NC(=O)N2CCCC2C(N)=O)sc1-c1ccnc(C(C)(C)C(F)(F)F)c1 | 99.2
CC1(C)CCC(CN2CCN(c3ccc(C(=O)NS(=O)(=O)c4ccc(NCC5CCOCC5)c([N+](=O)[O-])c4)c(Oc4cnc5[nH]ccc5c4)c3)CC2)=C(c2ccc(Cl)cc2)C1 + Cc1nc(NC(=O)N2CCCC2C(N)=O)sc1-c1ccnc(C(C)(C)C(F)(F)F)c1 | 98
C[C@@H](NC(=O)c1ncnc(N)c1Cl)c1ncc(C(=O)Nc2cc(C(F)(F)F)c(Cl)cn2)s1 + CC(Nc1ccc2c(c1)OCCn1cc(N3C(=O)OCC3C(F)F)nc1-2)C(N)=O | 119
CC1(C)CCC(CN2CCN(c3ccc(C(=O)NS(=O)(=O)c4ccc(NCC5CCOCC5)c([N+](=O)[O-])c4)c(Oc4cnc5[nH]ccc5c4)c3)CC2)=C(c2ccc(Cl)cc2)C1 + CC(Nc1ncnc2nc[nH]c12)c1cc2cccc(Cl)c2c(=O)n1-c1ccccc1 | 102
CC1(C)CCC(CN2CCN(c3ccc(C(=O)NS(=O)(=O)c4ccc(NCC5CCOCC5)c([N+](=O)[O-])c4)c(Oc4cnc5[nH]ccc5c4)c3)CC2)=C(c2ccc(Cl)cc2)C1 + CC(Nc1ccc2c(c1)OCCn1cc(N3C(=O)OCC3C(F)F)nc1-2)C(N)=O | 95.8
CC(Cn1ccc(-c2ccc(C#N)c(Cl)c2)n1)NC(=O)c1cc(C(C)O)[nH]n1 (stereo not given) + CC(Nc1ccc2c(c1)OCCn1cc(N3C(=O)OCC3C(F)F)nc1-2)C(N)=O | 101
C[C@@H](NC(=O)c1ncnc(N)c1Cl)c1ncc(C(=O)Nc2cc(C(F)(F)F)c(Cl)cn2)s1 + CC(Nc1ncnc2nc[nH]c12)c1cc2cccc(Cl)c2c(=O)n1-c1ccccc1 | 117
Cn1nccc1Nc1nccc(-c2ccn(C(CO)c3ccc(Cl)c(F)c3)c(=O)c2)n1 (stereo not given) + Cc1nc(NC(=O)N2CCCC2C(N)=O)sc1-c1ccnc(C(C)(C)C(F)(F)F)c1 | 92.4
CCN1CCN(Cc2ccc(Nc3ncc(F)c(-c4cc(F)c5nc(C)n(C(C)C)c5c4)n3)nc2)CC1 + CC(Nc1ncnc2nc[nH]c12)c1cc2cccc(Cl)c2c(=O)n1-c1ccccc1 | 104
CC(C)NCC(C(=O)N1CCN(c2ncnc3c2C(C)CC3O)CC1)c1ccc(Cl)cc1 (stereo not given) + CC(Nc1ncnc2nc[nH]c12)c1cc2cccc(Cl)c2c(=O)n1-c1ccccc1 | 92.1
Cn1nccc1Nc1nccc(-c2ccn(C(CO)c3ccc(Cl)c(F)c3)c(=O)c2)n1 (stereo not given) + CC(Nc1ccc2c(c1)OCCn1cc(N3C(=O)OCC3C(F)F)nc1-2)C(N)=O | 82.6
CNC(=O)c1ccc(N2C(=S)N(c3ccc(C#N)c(C(F)(F)F)c3)C(=O)C2(C)C)cc1F + COc1c(OCCCN2CCOCC2)ccc2c3n(c(=NC(=O)c4cnc(N)nc4)nc12)CCN3 | 85.7
Cn1ncc(Cl)c1-c1cc(C(=O)NC(CN)Cc2cccc(F)c2)sc1Cl (stereo not given) + Cc1nc(NC(=O)N2CCCC2C(N)=O)sc1-c1ccnc(C(C)(C)C(F)(F)F)c1 | 88.7
CC1(C)CCC(Nc2ncc(C(F)(F)F)c(-c3c[nH]c4c(P(C)(C)=O)c(C#N)ccc34)n2)CN1 (stereo not given) + CC(Nc1ncnc2nc[nH]c12)c1cc2cccc(Cl)c2c(=O)n1-c1ccccc1 | 97
CCN1CCN(Cc2ccc(Nc3ncc(F)c(-c4cc(F)c5nc(C)n(C(C)C)c5c4)n3)nc2)CC1 + CC(Nc1ccc2c(c1)OCCn1cc(N3C(=O)OCC3C(F)F)nc1-2)C(N)=O | 86
C#Cc1c(F)ccc2cc(O)cc(-c3ncc4c(N5CC6CCC(C5)N6)nc(OCC56CCCN5CC(F)C6)nc4c3F)c12 (stereo not given) + COc1c(OCCCN2CCOCC2)ccc2c3n(c(=NC(=O)c4cnc(N)nc4)nc12)CCN3 | 30.2
CC1(C)CCC(CN2CCN(c3ccc(C(=O)NS(=O)(=O)c4ccc(NCC5CCOCC5)c([N+](=O)[O-])c4)c(Oc4cnc5[nH]ccc5c4)c3)CC2)=C(c2ccc(Cl)cc2)C1 + COc1c(OCCCN2CCOCC2)ccc2c3n(c(=NC(=O)c4cnc(N)nc4)nc12)CCN3 | 92.8
CCCS(=O)(=O)Nc1ccc(F)c(C(=O)c2c[nH]c3ncc(-c4ccc(Cl)cc4)cc23)c1F + CC(Nc1ncnc2nc[nH]c12)c1cc2cccc(Cl)c2c(=O)n1-c1ccccc1 | 104
CC(C)NCC(C(=O)N1CCN(c2ncnc3c2C(C)CC3O)CC1)c1ccc(Cl)cc1 (stereo not given) + COc1c(OCCCN2CCOCC2)ccc2c3n(c(=NC(=O)c4cnc(N)nc4)nc12)CCN3 | 81.8
CC1(C)CCC(Nc2ncc(C(F)(F)F)c(-c3c[nH]c4c(P(C)(C)=O)c(C#N)ccc34)n2)CN1 (stereo not given) + COc1c(OCCCN2CCOCC2)ccc2c3n(c(=NC(=O)c4cnc(N)nc4)nc12)CCN3 | 77.6

====

test system: 931267-113-T-J1-PDC multicell spheroid viability; assay: Anticancer human tumor 931267-113-T-J1-PDC cell line growth inhibition [PI3K]; details: curve of first compound; second compound 0.00316 µM;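 further: viability read 7 days after compound addition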
pIC50: −log10 of the molar value.
property-label: pIC50

compound | property-label | inequality-symbol | recorded-number
CC(C)n1nc(-c2ccc3oc(N)nc3c2)c2c(N)ncnc21 + COc1c(OCCCN2CCOCC2)ccc2c3n(c(=NC(=O)c4cnc(N)nc4)nc12)CCN3 | pIC50 | = | 7.03
C[C@@H](NC(=O)c1ncnc(N)c1Cl)c1ncc(C(=O)Nc2cc(C(F)(F)F)c(Cl)cn2)s1 + CC(Nc1ccc2c(c1)OCCn1cc(N3C(=O)OCC3C(F)F)nc1-2)C(N)=O | pIC50 | < | 5.00
CC1(C)CCC(CN2CCN(c3ccc(C(=O)NS(=O)(=O)c4ccc(NCC5CCOCC5)c([N+](=O)[O-])c4)c(Oc4cnc5[nH]ccc5c4)c3)CC2)=C(c2ccc(Cl)cc2)C1 + CC(Nc1ccc2c(c1)OCCn1cc(N3C(=O)OCC3C(F)F)nc1-2)C(N)=O | pIC50 | = | 5.21
CCN1CCN(Cc2ccc(Nc3ncc(F)c(-c4cc(F)c5nc(C)n(C(C)C)c5c4)n3)nc2)CC1 + COc1c(OCCCN2CCOCC2)ccc2c3n(c(=NC(=O)c4cnc(N)nc4)nc12)CCN3 | pIC50 | < | 6.00
CC(C)NCC(C(=O)N1CCN(c2ncnc3c2C(C)CC3O)CC1)c1ccc(Cl)cc1 (stereo unspecified) + CC(Nc1ccc2c(c1)OCCn1cc(N3C(=O)OCC3C(F)F)nc1-2)C(N)=O | pIC50 | < | 5.00
C[C@@H](NC(=O)c1ncnc(N)c1Cl)c1ncc(C(=O)Nc2cc(C(F)(F)F)c(Cl)cn2)s1 + COc1c(OCCCN2CCOCC2)ccc2c3n(c(=NC(=O)c4cnc(N)nc4)nc12)CCN3 | pIC50 | < | 5.00
CC1(C)CCC(CN2CCN(c3ccc(C(=O)NS(=O)(=O)c4ccc(NCC5CCOCC5)c([N+](=O)[O-])c4)c(Oc4cnc5[nH]ccc5c4)c3)CC2)=C(c2ccc(Cl)cc2)C1 + COc1c(OCCCN2CCOCC2)ccc2c3n(c(=NC(=O)c4cnc(N)nc4)nc12)CCN3 | pIC50 | < | 5.00
Cn1cnc2c(F)c(Nc3ccc(Br)cc3Cl)c(C(=O)NOCCO)cc21 + CC(Nc1ccc2c(c1)OCCn1cc(N3C(=O)OCC3C(F)F)nc1-2)C(N)=O | pIC50 | = | 6.92
Cn1ncc(Cl)c1-c1cc(C(=O)NC(CN)Cc2cccc(F)c2)sc1Cl (stereo unspecified) + COc1c(OCCCN2CCOCC2)ccc2c3n(c(=NC(=O)c4cnc(N)nc4)nc12)CCN3 | pIC50 | = | 5.23
CC(=O)c1c(C)c2cnc(Nc3ccc(N4CCNCC4)cn3)nc2n(C2CCCC2)c1=O + CC(Nc1ccc2c(c1)OCCn1cc(N3C(=O)OCC3C(F)F)nc1-2)C(N)=O | pIC50 | < | 7.00
Cn1ncc(Cl)c1-c1cc(C(=O)NC(CN)Cc2cccc(F)c2)sc1Cl (stereo unspecified) + CC(Nc1ccc2c(c1)OCCn1cc(N3C(=O)OCC3C(F)F)nc1-2)C(N)=O | pIC50 | = | 5.29
